- System: rats
- measurementProtocol: Reversal of the effect of the mGluR2 PAM JNJ-42153605 on scopolamine-induced hyperlocomotion
- Format: in vivo
- measurementSetup: Rattus norvegicus, 1 h, Route PO, test compound 60 min before recording, criterion total distance >1500 cm
Quick reference: ED50 of the listed items.
Field: numeric (mg/kg). Do not append units.

Consider the reported ED50 for these compounds:
Reported ED50 for Cc1cc(-c2cnn3c2C(=O)N(c2ccc(C(F)(F)F)c(Cl)c2)C[C@@H]3C)ccn1 [compound 3] : what is it?
1.99

Can you handle COc1cc(-c2cnn3c2C(=O)N(c2ccc(C(F)(F)F)cc2)C[C@@H]3C)ccn1 [compound 45] next?
1.26

Also COc1cc(N2C[C@H](C)n3ncc(-c4ccnc(C)c4)c3C2=O)ccc1C(F)(F)F [compound 12] ?
1.25

Request: CCOc1cc(N2C[C@H](C)n3ncc(-c4ccnc(C)c4)c3C2=O)ccc1C(F)(F)F [compound 8]
5

Could you do the same for C[C@H]1CN(c2ccc(C(F)(F)F)cc2)C(=O)c2c(-c3ccncc3)cnn21 [compound 2] , please?
1.26

Next:
For the compound Cc1cc(-c2cnn3c2C(=O)N(c2ccc(C(F)(F)F)cc2)C[C@@H]3C)cc(C)n1 [compound 14] , what ED50 is on record?
5

Now consider CNc1cc(-c2cnn3c2C(=O)N(c2ccc(C(F)(F)F)cc2)C[C@@H]3C)ccn1 [compound 147] and answer again.
0.5

Again, but for Cc1cc(-c2cnn3c2C(=O)N(c2ccc(S(F)(F)(F)(F)F)cc2)C[C@@H]3C)ccn1 [compound 4]
1.26

Again, but for Cc1cc(-c2cnn3c2C(=O)N(c2ccc(Cl)c(Cl)c2)C[C@@H]3C)cc(C)n1 [compound 47]
1.99

###

- measurementTarget: human mGlu2 receptor (Homo sapiens, UniProt Q14416)
- Construct: expressed in transfected cells; host or cells: CHO cells (membrane preparation)
- Sequence (Q14416 19-872): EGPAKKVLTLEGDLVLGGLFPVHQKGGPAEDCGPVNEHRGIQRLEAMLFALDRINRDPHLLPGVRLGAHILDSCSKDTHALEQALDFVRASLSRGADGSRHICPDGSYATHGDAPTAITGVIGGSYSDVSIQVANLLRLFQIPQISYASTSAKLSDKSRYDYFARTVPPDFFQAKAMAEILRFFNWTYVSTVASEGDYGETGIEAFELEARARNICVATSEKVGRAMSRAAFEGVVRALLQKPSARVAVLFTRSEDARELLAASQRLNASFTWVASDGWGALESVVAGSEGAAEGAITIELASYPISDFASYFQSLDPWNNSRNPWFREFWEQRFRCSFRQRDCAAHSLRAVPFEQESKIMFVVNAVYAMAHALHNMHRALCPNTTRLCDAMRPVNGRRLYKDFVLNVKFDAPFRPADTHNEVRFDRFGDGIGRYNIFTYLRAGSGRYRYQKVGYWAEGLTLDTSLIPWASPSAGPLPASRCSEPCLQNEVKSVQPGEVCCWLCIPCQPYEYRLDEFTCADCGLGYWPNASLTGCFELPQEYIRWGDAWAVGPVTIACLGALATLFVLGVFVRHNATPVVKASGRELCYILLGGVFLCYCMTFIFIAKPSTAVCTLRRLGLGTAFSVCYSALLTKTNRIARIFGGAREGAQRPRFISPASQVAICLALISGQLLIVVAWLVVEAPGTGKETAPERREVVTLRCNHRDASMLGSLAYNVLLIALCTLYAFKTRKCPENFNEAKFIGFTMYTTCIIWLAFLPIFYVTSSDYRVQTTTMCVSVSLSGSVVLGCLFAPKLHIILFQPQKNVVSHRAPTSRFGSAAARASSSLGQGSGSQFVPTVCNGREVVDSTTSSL
- measurementProtocol: [35S]GTPγS binding assay (mGluR2 negative allosteric modulation)
- Type: biochemical
- measurementSetup: membranes from CHO cells transfected with human mGlu2 receptor; glutamate 60 μM; pIC50 = −log IC50 (M); read-out: GTPγS - hmGluR2 anGT pIC50 (converted)
- Method: 1) [^35S]GTPγS binding assay The [^35S]GTPγS binding assay is a functional membrane-based assay used to study G-protein coupled receptor (GPCR) function whereby incorporation of a non-hydrolysable form of GTP, [^35S]GTPγS (guanosine 5′-triphosphate, labelled with gamma-emitting ^35S), is measured. […] CHO-cells were cultured to pre-confluence and stimulated with 5 mM butyrate for 24 h. […] Protein concentration was determined by the Bradford method (Bio-Rad, USA) with bovine serum albumin as standard. […]
assayMetric: IC50

Worked cases, answers included:
I'm curious: which IC50 was measured for Cc1cc(-c2cnn3c2C(=O)N(c2ccc(Cl)c(C)n2)C[C@@H]3C)ccn1 [compound 196] tested on human mGlu2 receptor (Homo sapiens, UniProt Q14416)?
5.01e-08 M

Entry CNc1cc(-c2cnn3c2C(=O)N(c2ccc(C(F)(F)F)c(F)c2)C[C@@H]3C)ccn1 [compound 182] please
8.32e-09 M

Input Cc1cc(-c2cnn3c2C(=O)N(c2ccc(OCCF)c(C(F)(F)F)c2)C[C@@H]3C)ccn1 [compound 77]
3.89e-07 M

---
Form entry - test system: human mGlu2 receptor (Homo sapiens, UniProt Q14416); read-out: IC50; compound: COc1cc(N2C[C@H](C)n3ncc(-c4ccnc(C)c4)c3C2=O)ccc1C(F)(F)F [compound 12]
1.95e-08 M

Also, Cc1cc(-c2cnn3c2C(=O)N(c2ccc(Cl)c(Cl)c2)C[C@@H]3C)ccn1 [compound 6] please.
5.01e-09 M

###

- measurementTarget: human mGlu2 receptor (Homo sapiens, UniProt Q14416)
- Construct: expressed in transfected cells; host or cells: CHO cells (membrane preparation)
- measurementProtocol: [35S]GTPγS binding assay (mGluR2 negative allosteric modulation)
- Type: biochemical
- measurementSetup: membranes from CHO cells transfected with human mGlu2 receptor; glutamate 60 μM; pIC50 = −log IC50 (M); read-out: GTPγS - hmGluR2 anGT pIC50 (converted)
assayMetric: log10 of IC50 (log10 of the value in M)
Hi team, quick reminder: these entries are log10 of IC50 (M).

Examples with their reported log10 of IC50 follow.
Any idea what log10 of IC50 was measured for COc1c(C)cc(N2C[C@H](C)n3ncc(-c4ccnc(C)c4)c3C2=O)cc1C ?
-6.25

How about this molecule: C[C@H]1CN(c2ccc(C(F)(F)F)cn2)C(=O)c2c(-c3ccnc(F)c3)cnn21
-6.82

Continue with C[C@H]1CN(c2ccc(Cl)c(Cl)c2)C(=O)c2c(-c3ccnc(C#N)c3)cnn21
-7.73

Cc1cc(-c2cnn3c2C(=O)N(c2ccc(Cl)c(Cl)c2)CC3CF)ccn1 (single isomer, unassigned) [compound 116] , same question.
-6.25

What about this molecule? CCNc1cc(-c2cnn3c2C(=O)N(c2ccc(C(F)(F)F)c(Cl)c2)C[C@@H]3C)ccn1
-8.82

Others:
Query (molecule): CCOc1ccc(Cl)c(N2C[C@H](C)n3ncc(-c4ccnc(C)c4)c3C2=O)n1 ; field requested: log10 of IC50
-5.39

And for Cc1cc(-c2cnn3c2C(=O)N(c2ccc(C(C)C(F)(F)F)cc2)C[C@@H]3C)ccn1 (some centres unmarked) ?
-7.04

Request: COc1cc(-c2cnn3c2C(=O)N(c2ccc(C(F)(F)F)c(C#N)c2)C[C@@H]3C)ccn1
-7.39

###

- measurementTarget: human mGlu2 receptor (Homo sapiens)
- Construct: expressed in transfected cells; host or cells: CHO cells (membrane preparation)
- measurementProtocol: [35S]GTPγS binding assay (mGluR2 negative allosteric modulation)
- Format: biochemical
- measurementSetup: relative maximal effect: maximal % inhibition relative to the control glutamate response; read-out: GTPγS - hmGluR2 anGT Emax
assayMetric: Emax (%)
Write down the numeric answer in % and omit the unit.

Below: 3 compounds and their reported Emax.
// lookup Emax for Cc1cc(-c2cnn3c2C(=O)N(c2ccc(Cl)cc2F)C[C@@H]3C)ccn1 [compound 30]
104

Now try CCN(C)c1cc(-c2cnn3c2C(=O)N(c2ccc(C(F)(F)F)c(Cl)c2)C[C@@H]3C)ccn1 [compound 254] .
109

Param item: Cc1cc(-c2cnn3c2C(=O)N(c2cc(F)cc(Cl)c2)C[C@@H]3C)ccn1 [compound 63]
105

More entries:
What value of measured Emax is listed for CN(C)c1cc(-c2cnn3c2C(=O)N(c2ccc(Cl)c(Cl)c2)CC3CF)ccn1 (single isomer, unassigned) [compound 90] ?
103

Consider next the compound C[C@H]1CN(c2ccc(C(F)(F)F)c(Cl)c2)C(=O)c2c(-c3ccnc(OCCF)c3)cnn21 [compound 177] in the same way.
105

Continue with COc1ccc(N2C[C@H](C)n3ncc(-c4ccnc(C)c4)c3C2=O)cc1OC [compound 41]
95

Proceed to Cc1cc(-c2cnn3c2C(=O)N(c2ccc(Cl)cn2)C[C@@H]3C)ccn1 [compound 187]
108

###

This section presents compounds with their documented ED50 values.
- Tested on: Male Wiga Wistar rats
- measurementProtocol: Reversal of LY-404039-induced decrease of palpebral opening in apomorphine-challenged rats
- Assay type: in vivo
- measurementSetup: Rattus norvegicus, Route PO; reversal of LY-404039-induced decrease of palpebral opening (cumulative score >26) in apomorphine challenged rats

Field: example entries. Status: answers known.
Item CCOc1cc(N2C[C@H](C)n3ncc(-c4ccnc(C)c4)c3C2=O)ccc1C(F)(F)F has what recorded ED50?
5 mg/kg

Param item: CCOc1cc(N2CCn3ncc(-c4ccnc(C)c4)c3C2=O)ccc1C(F)(F)F
> 2.5 mg/kg

***
// query ED50 value for entry Cc1cc(-c2cnn3c2C(=O)N(c2ccc(Cl)cc2Cl)C[C@@H]3C)ccn1
> 40 mg/kg

What do we get for Cc1cc(-c2cnn3c2C(=O)N(c2ccc(C(F)(F)F)c(C)c2)C[C@@H]3C)ccn1 ?
> 10 mg/kg

###

assayMetric: melting point

Some solved cases for reference:
State the recorded melting point for this entry: CNc1cc(-c2cnn3c2C(=O)N(c2ccc(C(F)(F)F)c(Cl)c2)C[C@@H]3C)cc(C#N)n1 [compound 95]
210.61 °C (dec.)

Would you kindly repeat that for COCC1CN(c2ccc(Cl)c(Cl)c2)C(=O)c2c(-c3ccnc(C)c3)cnn21 (stereo not drawn) [compound 143] ?
> 300 °C

Next item in the queue.
Which melting point reading was recorded for the compound CNc1cc(-c2cnn3c2C(=O)N(c2ccc(C(F)(F)F)c(OC)n2)C[C@@H]3C)ccn1 [compound 237] ?
125.82 °C (dec.)

###

- measurementTarget: human mGlu2 receptor (Homo sapiens)
- Construct: expressed in transfected cells; host or cells: CHO cells (membrane preparation)
- measurementProtocol: [35S]GTPγS binding assay (mGluR2 negative allosteric modulation)
- Type: biochemical
- measurementSetup: membranes from CHO cells transfected with human mGlu2 receptor; glutamate 60 μM; pIC50 = −log IC50 (M); read-out: GTPγS - hmGluR2 anGT pIC50 (converted)
The entries below come with measured IC50 values attached.
The answer is to be given in M; state only the numeric part.

Entry COCC1CN(c2ccc(C(F)(F)F)cc2)C(=O)c2c(-c3ccnc(C)c3)cnn21 (single isomer, unassigned) [compound 121] has what IC50?
1.62e-05

Same lookup for Cc1cc(-c2cnn3c2C(=O)N(c2ccc(C4(C(F)(F)F)CC4)cc2)C[C@@H]3C)ccn1 , please.
4.37e-08

// next entry
Name the reported IC50 value associated with the compound C[C@H]1CN(c2ccc(C(F)(F)F)c(Cl)c2)C(=O)c2c(-c3ccncc3)cnn21
9.55e-09
